biological target: T1, cyno PD-1, full length, on CHO-K1 cells (cyno monkey, UniProt B0LAJ3 25-288); test: flow cytometry on CHO-K1-cPD-1 cells
T1 construct: also called CHO-K1-cPD-1; cPD-1
T1 sequence (B0LAJ3 entry or part of it limits assumed): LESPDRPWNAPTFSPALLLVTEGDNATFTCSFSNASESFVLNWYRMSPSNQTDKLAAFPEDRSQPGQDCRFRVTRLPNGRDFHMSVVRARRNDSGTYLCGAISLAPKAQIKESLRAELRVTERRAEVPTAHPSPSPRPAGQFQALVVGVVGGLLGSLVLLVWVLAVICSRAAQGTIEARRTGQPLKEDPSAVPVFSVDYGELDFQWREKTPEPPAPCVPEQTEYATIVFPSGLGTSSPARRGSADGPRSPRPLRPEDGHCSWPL
assay_endpoint: MFI at 1 nM
Answer with the value and then the unit.

// field: MFI at 1 nM; key: chimeric anti-PD-1 antibody 32B5C7 (antibody, V domains shown) VH: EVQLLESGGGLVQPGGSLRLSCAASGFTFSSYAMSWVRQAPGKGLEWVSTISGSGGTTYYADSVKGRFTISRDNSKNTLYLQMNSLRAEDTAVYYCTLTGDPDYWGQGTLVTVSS VL: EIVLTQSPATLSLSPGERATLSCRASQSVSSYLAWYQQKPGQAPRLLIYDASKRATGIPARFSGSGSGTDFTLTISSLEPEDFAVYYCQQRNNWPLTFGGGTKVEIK ; value = 46.3 MFI

Reference source for all entries: patent US20180214548A1
